# Test system: HUVEC
# test.name: MTT cytotoxicity assay
# Format: cell-based
# assay.conditions: Homo sapiens
pIC50: −log10 of the molar value.
reported.property: pIC50

INSERT INTO results (compound, result_value) VALUES
  ('Cc1[nH]c(/C=C2\C(=O)Nc3ccc(F)cc32)c(C)c1C(=O)NCCN1CCNCC1 [SAP]', 4.85);

----------
# test.name: in vivo
# assay.conditions: female, NOD/SCID, mouse, blood, ip, 100 μmol/Kg
reported.property: concentration at 1 h

INSERT INTO assay_data (compound, result_value) VALUES
  ('CCN(CC)CCNC(=O)c1c(C)[nH]c(/C=C2\C(=O)Nc3ccc(F)cc32)c1C [sunitinib, reference compound]', '10.8 µM');
